Origin of values: patent US20260015426A1

- experimental-system: T1, hu-M-IL1RAP construct, positions S21-T367 (extracellular domain of the membrane form of human IL1RAP) (human, UniProt Q9NPH3 21-367)
- T1 construct: Biotinylated when captured on the Biacore chip
- T1 sequence: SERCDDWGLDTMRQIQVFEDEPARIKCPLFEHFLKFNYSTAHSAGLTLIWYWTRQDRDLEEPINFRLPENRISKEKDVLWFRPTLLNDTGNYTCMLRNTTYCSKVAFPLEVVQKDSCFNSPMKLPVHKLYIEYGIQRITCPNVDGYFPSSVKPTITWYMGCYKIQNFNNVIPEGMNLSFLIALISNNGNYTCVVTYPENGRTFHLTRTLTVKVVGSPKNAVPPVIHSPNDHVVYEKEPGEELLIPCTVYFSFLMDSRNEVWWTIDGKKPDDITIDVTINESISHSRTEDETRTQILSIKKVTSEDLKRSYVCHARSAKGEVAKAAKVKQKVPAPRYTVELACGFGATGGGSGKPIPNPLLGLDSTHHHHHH
- test-name: ELISA, hybridoma supernatant
The entries below are paired with their reported A450.

| binder | value-unit | A450 |
| --- | --- | --- |
| 10A11 (purified mAb from hybridoma 10A11) (antibody, V domains shown, Mouse hybridoma mAb) VH: EVQLQQSGAELVKPGASVRLSCTSSGFNIKDYFMHWVKQRTEQGLEWVGRIDPEDGETQYAPNFQDKATITVDTSSNTVYLQLSSLTSEDTAVYYCFRPLYYGNSPWFAYWGQGTLVTVSP VL: DIQMTQTTSSLSASLGDRVTISCRASQDISNYLNWYQQKPDGTVKLLIYYTSTLHSGVPSRFSGSGSGTDYSLTISNLEPEDIATYYCHQYSKFPPTFGSGTKLEIK | A450 | 0.99 |
| 13D8 (purified mAb from hybridoma 13D8) (antibody, V domains shown, Mouse hybridoma mAb) VH: EVQLVESGGGLVKPGGSLKLSCTASGFTFSNYAMSWVRQTPEKRLEWVATISDGGNYTYYPDNVKGRFTISRDIAKNNLYLQMSHLKSEDTAMYYCARDRWPYFFDFWGQGTTLTVSS VL: DIQMTQSPASLSVSVGETVTITCRASDNIYSNLAWYQEKQGKSPQLLVYGATNLADGVPSRFSGSGSGTQYSLKINSLQSEDFGSYYCQHFWTTPRSFGGGTKLELK | A450 | 1.01 |
| 9D5 (purified mAb from hybridoma 9D5) (antibody, V domains shown, Mouse hybridoma mAb) VH: QVQLQQSGAELARPGASVKFSCKASGYTFTSYWMQWVKQRPGQGLEWIGTIYPGDGNTRYTQKFKGKATLTADKSSSTAYMQLSGLASEDSAVYYCARGYFGNLVFDVWGAGTTVTVSS VL: DIKMTQSPSSMYASLGERVTITCKASQDINTYLSWFLQKPGKSPKTLIYRADRLVDGVPSRFSGGGSGQDYSLTISSLEYEDLGIYYCLQYDEFPYTFGSGTKLEIK | A450 | 1.05 |
| 11C5(Hy) (purified mAb from the 11C5 hybridoma) (antibody, V domains shown, Mouse hybridoma mAb; also called 11C5(Hy) mAb; mAb 11C5(Hy)) VH: EVQLVESGGGLVKPGGSLKLSCAASGFTFSNYAMSWVRQTPEKRLEWVATVTEGGDYNYCLDDVKGRFTISRDNANDNLYLQMSHLKSEDSARYYCARDRWPYFFDYWGQGTTLTVSS VL: DIQMTQSPASLSVSVGETVTITCRASENIYSNLAWYQQKQGRSPQLLVYGAKNLADGVPSRFSGSGSGTQYSLNINSLQSEDFGTYYCQHFWTTPRTFGGGTKLEIK | A450 | 1.44 |
| 8H1 (purified mAb from hybridoma 8H1) (antibody, V domains shown, Mouse hybridoma mAb) VH: QVQLQQSGPELVKSGASVRISCKASGYAFSGSWMNWVKQRPGKGLEWIGRIYPGDGNTNYNGKFKDKATLTADKSSSTAFMQLSSLTSEDSAVYFCARDYYLFYFDYWGQGTTLTVSS VL: NIVMTQTPKFLPVAAEDRVIITCKASQDVSNEVAWYQQKPGQSPKLLMYYASNRYTGVPDRFTGSGSGTDFTFTISSVQVEDLAVYFCQQHYSSPLTFGAGTKLELK | A450 | 0.987 |
